Source: PubChem BioAssay (NCI)

assay: NCI Yeast Anticancer Drug Screen. Data for the cln2 rad14 strain (AID 165);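 also: 0% = growth equal to vehicle treated cultures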; details: S. cerevisiae cln2 rad14 strain, at 50.0 µM, active compounds read high
About 79,000 compounds went through this panel and 15% of them were active in at least one assay; those are over-represented in the sample as a whole. Active and inactive are the calls of the source. Rule as the data show it: active = growth inhibition above about 70%; inactive = the rest.
Property Label: growth inhibition

Look up growth inhibition for this compound: `[Se]=P(c1ccccc1)(N1CC1)N1CC1`
3.55% (inactive)

Look up growth inhibition for this compound: `C(#CP(c1ccccc1)c1ccccc1)c1ccccc1`
20.1% (inactive)

Look up growth inhibition for this compound: O=C1c2ccccc2C(=O)N1N1CC1c1ccccc1 (stereo not drawn)
18.2% (inactive)

Look up growth inhibition for this compound: `Nc1ccc([N+](=O)[O-])cc1`
-6.55% (inactive)

Look up growth inhibition for this compound: CNC(C)Cc1ccccc1OC (stereo not drawn)
2.65% (inactive)

Look up growth inhibition for this compound: `CCOP(=O)(OCC)/C(C#N)=C/c1ccccc1`
-33.8% (inactive)

Look up growth inhibition for this compound: C/C=C1/C[C@@H](C)[C@@](C)(O)C(=O)OCC2=CC[N+]3([O-])CC[C@@H](OC1=O)[C@@H]23 (stereo partly drawn)
10.7% (inactive)

Look up growth inhibition for this compound: `Cn1cnnc1[N+](=O)[O-]`
-1.1% (inactive)
